organism: Rattus norvegicus; test: Relative potency in the rat discriminative stimulus assay, expressed as mg of PCP (= 1.0 mg of compound); type: functional

[
  {
    "Molecule": "Cl.c1ccc(C2(N3CCCCC3)CCC2)cc1",
    "Relative potency": 0.19
  },
  {
    "Molecule": "Cl.c1ccc(C2(N3CCCCC3)CCCCC2)cc1 [PHENCYCLIDINE HYDROCHLORIDE]",
    "Relative potency": 1
  },
  {
    "Molecule": "Cl.c1ccc(C2(N3CCCCC3)CCCCCC2)cc1",
    "Relative potency": 0.06
  },
  {
    "Molecule": "Cl.c1ccc(C2(N3CCCCC3)CCCC2)cc1",
    "Relative potency": 0.37
  }
]

All figures here come from ChEMBL document CHEMBL1121756.
